Attribute Measured: melting point (°C)

INSERT INTO measurements (chem_smiles, measured) VALUES
  ('COc1ccc(-c2cc(=O)c3c(OCC4=COC(C)(C)O4)cc(OCC4=COC(C)(C)O4)cc3o2)cc1O', 160),
  ('Cc1cc(C(N)=O)co1', 158),
  ('CCOC(=O)c1c(N2CCN(C(=O)c3cccs3)CC2)c2cnccc2n(CC(=O)c2ccccc2)c1=O', 157);

----------
Each entry below lists one item and its recorded melting point value.

Recorded melting point, per entry:
INSERT INTO results (compound, attribute_measured, measured) VALUES
  ('CC=C1OC(=O)c2c(OC)cccc21', 'melting point', '106 to 109 °C'),
  ('COCCNC(=O)c1cccc(-c2cccc3cc(Cc4cc(F)ccc4F)sc23)c1', 'melting point', '92 to 94 °C'),
  ('CNCC(O)c1cccc(F)c1 (stereo not given)', 'melting point', '63 to 65 °C'),
  ('CC(C)(C)OC(=O)CCS(=O)(=O)c1ccc(Br)cc1', 'melting point', '105 °C'),
  ('CC1Oc2ccc(CN3CCN(CC(=O)NC4CC4)CC3)cc2NC1=O (stereo not given)', 'melting point', '180 to 181 °C');

Kindly note the recorded melting point for COc1ccccc1C(=O)c1c(SC)nn(-c2c(Cl)cc(Cl)cc2Cl)c1N , which is 200 to 202 °C

Kindly note the recorded melting point for CC(C(=O)Oc1cc(=O)n(-c2cccc(C(F)(F)F)c2)c2ncccc12)c1ccccc1 (stereo not given) , which is 42 to 57 °C

Kindly note the recorded melting point for CC(=O)Nc1ccc(Nc2c(NCc3ccccc3)cc(C(=O)O)cc2S(=O)(=O)Nc2ccccc2NC(C)=O)cc1 , which is 268 °C

Kindly note the recorded melting point for OC1c2cc(OCc3ccc4ccccc4n3)ccc2OCC1Oc1ccccc1 (stereo not given) , which is 151 to 153 °C

Kindly note the recorded melting point for CCCn1c(=O)c(N=O)c(N)n(CCc2ccc([N+](=O)[O-])cc2)c1=O , which is 204 to 205 °C

----------
Each entry below lists one item and its recorded melting point value.

Recorded melting point, per entry:
INSERT INTO results (compound, attribute_measured, measured) VALUES
  ('O=C(O)c1cnc(-c2nnn[nH]2)c2ccccc12', 'melting point', '292 °C'),
  ('COc1ccc(C2(c3ccc(OC)cc3)CC2(C)Br)cc1 (stereo unspecified)', 'melting point', '97 to 104 °C'),
  ('C[C@@H]1CN(CC=CC(=O)Nc2cc3c(Nc4ccc(F)c(Cl)c4)ncnc3cc2O[C@@H]2CCOC2)CC(=O)O1', 'melting point', '230 °C');

Kindly note the recorded melting point for Nc1cc(C(=O)O)cc(OCc2ccccc2)c1Cc1ccccc1 , which is 208 to 210 °C

Kindly note the recorded melting point for N#Cc1c(CCl)[nH]c(=O)[nH]c1=O , which is 229 °C

Kindly note the recorded melting point for CCSc1cc(C)nc(SCC)c1NC(=O)CSc1nc2ccccc2s1 , which is 119 to 120 °C

Kindly note the recorded melting point for Cn1c(CNCC(C)(C)O)cc2cc(NC(=O)c3ccc(OC[C@@H]4CCCO4)cc3F)ccc21 , which is 159 to 160 °C

Kindly note the recorded melting point for Cc1c(C(=O)c2cnn(C(C)(C)C)c2O)ccc(S(C)(=O)=O)c1-c1ccc(S(C)(=O)=O)cc1 , which is 187 to 188 °C

----------
Each entry below lists one item and its recorded melting point value.

Recorded melting point, per entry:
INSERT INTO assay_data (compound, attribute_measured, measured) VALUES
  ('CCCCCCCCCCCCCCCCOCC(CN)COC (stereo not drawn)', 'melting point', '49 to 51 °C'),
  ('CC(Oc1ccc(-c2cccc(C(N)=O)c2)cc1)C(O)CCc1cccnc1 (stereo not drawn)', 'melting point', '74 to 76 °C'),
  ('C=CCNc1nc(C)c(C(=O)c2ccc(N)c([N+](=O)[O-])c2)s1', 'melting point', '250 to 252 °C');

Kindly note the recorded melting point for CC(C)C(NC(=O)c1ccccc1)C(=O)O (racemic) , which is 125 to 128 °C

Kindly note the recorded melting point for O=C1O[C@@H](Cn2ccnn2)CN1c1ccc(-c2ccc(C3=NO[C@H](Cn4ccnc4)C3)nc2)c(F)c1 , which is 239 to 242 °C

Kindly note the recorded melting point for O=C1CCCCc2cc(I)ccc2N1 , which is 207 to 208 °C

Kindly note the recorded melting point for CCOC(C(=O)O)N1CCN2c3ccccc3Cc3ccccc3C2C1 (stereo not drawn) , which is 105 to 108 °C

Kindly note the recorded melting point for O=C1C2=C(CCCC2)C(=O)N1c1ccc2c(c1)NC(=O)C21CC1 , which is 274 to 276 °C

Kindly note the recorded melting point for COc1cc2c(cc1OC(C)C)-c1c(-c3cccs3)c3c(n1CC2)C(=O)N(C(C)C)CCN(C(=O)OC(C)(C)C)C3 , which is 205 to 206 °C

Kindly note the recorded melting point for COC(=O)c1ccc(Cc2cn(C)c3ccc(NC(=O)OC4CCCC4)cc23)c(OC)c1 , which is 134 to 135 °C

Kindly note the recorded melting point for N#Cc1ccc(-c2cnc(Cl)o2)cc1 , which is 144 °C

----------
Each entry below lists one item and its recorded melting point value.

INSERT INTO results (molecule, measured) VALUES
  ('COC(=O)CCN(CC1CC2c3cccc4[nH]cc(c34)CC2N(C)C1)C(=O)NC(C)C (stereo not given)', '112 to 115 °C'),
  ('Cc1ncoc1C(O)c1ccccc1 (stereo not given)', '79 to 81 °C'),
  ('O=C(O)CNC(=O)C(NC(=O)c1ccccc1)SC(=O)c1ccccc1 (stereo not given)', '162 to 164 °C');

Kindly note the recorded melting point for NC(Cc1ccc(O)cc1)CN1CCN(c2ccccc2)CC1 (stereo not given) , which is > 270 °C

Kindly note the recorded melting point for CC(=O)CNC1(c2ccc(OC(C)=O)cc2)Sc2ccccc2N(C)C1=O (stereo not given) , which is 182 to 184 °C

Kindly note the recorded melting point for CN1C(=O)C(C)(Cc2ccccc2)N(C)C(=O)C1=Cc1cccnc1Cl (stereo not given) , which is 146 °C

----------
Each entry below lists one item and its recorded melting point value.

Recorded melting point, per entry:
INSERT INTO assay_data (compound, measured) VALUES
  ('CCOC(=O)c1ccc(CCN2CCN(CCCS(=O)(=O)O)CC2)cc1', '235 to 236 °C'),
  ('CC(=O)NC(CC(=O)c1cc(Cl)ccc1N)C(=O)NC(CO)c1ccccc1 (configuration not stated)', '212 to 215 °C'),
  ('CCCN(CCC)C(=O)c1n[nH]c2c(=O)[nH]c3cc(Cl)ccc3c(=O)c12', '270 °C'),
  ('CCCc1oc(-c2ccccc2)nc1COc1ccc(COc2ccccc2CC(=O)O)cc1', '129 to 130 °C'),
  ('CN(C)Cc1c[nH]c2cc(Cl)ccc12', '130 to 133 °C');

Kindly note the recorded melting point for CCCC(NC(=O)Cc1ccc(C(=O)O)c(OCC)c1)c1ccccc1N1CCCCC1 (configuration not stated) , which is 87 to 89 °C

Kindly note the recorded melting point for CC(=O)Nc1cc(=O)cc2n1CCCCC2 , which is > 230 °C

Kindly note the recorded melting point for OCCOc1ccc2ncccc2c1 , which is 68 to 70 °C

Kindly note the recorded melting point for NC(=NCCc1ccccn1)Nc1ccc(Br)cn1 , which is 139 to 141 °C

----------
Attribute Measured: melting point

INSERT INTO results (compound, attribute_measured, measured) VALUES
  ('Cc1nc2c(s1)CCN(C(=O)c1ccc(NC(=O)c3ccccc3-c3ccccc3)cc1)c1ccccc1-2', 'melting point', '165 to 168 °C'),
  ('Cc1cc(OCCN2CCOCC2)nn1-c1ccc2ccc(O)cc2c1', 'melting point', '103 to 107 °C'),
  ('CC(C)c1cccc(C(C)C)c1NC(=O)CN1CCN(CCSc2nc3cccc(S(C)=O)c3o2)CC1 (stereo not given)', 'melting point', '119 to 120 °C');

Kindly note the recorded melting point for CCOC(=O)CNc1ccc(NS(C)(=O)=O)cc1 , which is 135 to 138 °C

Kindly note the recorded melting point for O=C(O)c1c[nH]c(Cl)c1 , which is 175 to 178 °C

Kindly note the recorded melting point for CN[C@H]1CCN(c2c(-c3ccccc3)c(C)c(C#N)c3nc(C(=O)N(C)C)oc23)C1 , which is 148 to 151 °C

----------
Attribute Measured: melting point

INSERT INTO measurements (compound, measured) VALUES
  ('N#Cc1ccc(CN(O)Cc2ccc(C#N)cc2)cc1', '172 to 175 °C'),
  ('CCCCCCCCCCCCCC(=O)Nc1ccc(C2=NNC(=O)NC2C)cc1 (centres undefined)', '206 to 209 °C'),
  ('COc1c(C)c2c(c(O)c1CC1=C(C)CC(C(=O)O)C1)C(=O)OC2 (centres undefined)', '208 to 211 °C');

Kindly note the recorded melting point for O=C(O)c1cnc2cnc3ccccc3n2c1=O , which is 216 to 218 °C

Kindly note the recorded melting point for N#CCOc1cc(Cl)c2c(=O)c(-c3ccccc3Cl)coc2c1 , which is 174 to 175 °C

Kindly note the recorded melting point for CCOC(=O)c1cnn(-c2ccccc2[N+](=O)[O-])c1C(=O)OCC , which is 45 to 46 °C
